Assay: BSK_BE3C_SRB: Viability Assessment in the BioMAP Diversity Plus: BE3C Assay (AID 2283028)
Conditions: primary human bronchial epithelial cells
Method: BSK_BE3C is a cell-based, multiplexed-readout assay that uses bronchial epithelial cell, a human lung primary cell, with measurements taken at 24 hours after chemical dosing in a 96-well plate.BSK_BE3C_SRB is an assay component measured in the BSK_BE3C assay. It measures 0.1% sulforhodamine related to cell death using Sulforhodamine staining technology.Data from the assay component BSK_BE3C_SRB was analyzed into 1 assay endpoint. […]
Calls of active or inactive are those of the source. The calls were made as follows: active = hit-call score of the fitted dose curve at least 0.9, where 1 is the maximum; inactive = score below 0.9.
Outcomes: y (active), n (inactive)

compound: O=C(OC1CCCCC1)c1ccccc1C(=O)OC1CCCCC1
label value: n
//
compound: CC(C)CCCCCCOC(=O)c1ccccc1C(=O)OCCCCCCC(C)C
label value: n
//
compound: CCOP(=S)(OCC)Oc1nc(Cl)c(Cl)cc1Cl
label value: n
//
compound: Oc1c(I)cc(I)cc1I
label value: n
//
compound: COC[C@H](C)N(C(=O)CCl)c1c(C)csc1C
label value: n
//
compound: O=[N+]([O-])c1ccc(O)c([N+](=O)[O-])c1
label value: n
//
compound: CCOC(=O)/C=C(C)/C=C/C[C@@H](C)CCCC(C)C
label value: n
//
compound: CC(C)c1ccc(CO)cc1
label value: n
//
compound: ClC1(Cl)C2(Cl)C3(Cl)C4(Cl)C(Cl)(Cl)C5(Cl)C3(Cl)C1(Cl)C5(Cl)C24Cl (stereo not drawn)
label value: n
//
compound: COP(=S)(OC)Oc1c(Cl)cc(C)cc1Cl
label value: n
//
compound: Oc1cccc2cccnc12
label value: y
//
compound: CN(C)N=O
label value: n
//
compound: CCSC(C)CC1CC(=O)C(C(CC)=NOC/C=C/Cl)=C(O)C1 (stereo not drawn)
label value: n

Data provenance: PubChem BioAssay (EPA / NIEHS)
